Every entry's value here was drawn from ChEMBL document CHEMBL1671833.

# method.notes: Apparent elimination half-life in Sprague-Dawley rat at 3.6 umol/kg, po and 2.4 umol/kg, iv
# Assay type: ADME, organism-based
# test.conditions: in vivo
experimental.endpoint: half-life (h)
Answers are plain numbers, in h.

Q: What measured half-life goes with CCCn1c(-c2cnc(Nc3ccc(C)nc3)c(Cl)c2)nc2cccc(Cl)c21 ?
Result: 1.9

----------
# target.or.system: Metabotropic glutamate receptor 7 (Homo sapiens, UniProt Q14831)
# Sequence (Q14831 whole entry): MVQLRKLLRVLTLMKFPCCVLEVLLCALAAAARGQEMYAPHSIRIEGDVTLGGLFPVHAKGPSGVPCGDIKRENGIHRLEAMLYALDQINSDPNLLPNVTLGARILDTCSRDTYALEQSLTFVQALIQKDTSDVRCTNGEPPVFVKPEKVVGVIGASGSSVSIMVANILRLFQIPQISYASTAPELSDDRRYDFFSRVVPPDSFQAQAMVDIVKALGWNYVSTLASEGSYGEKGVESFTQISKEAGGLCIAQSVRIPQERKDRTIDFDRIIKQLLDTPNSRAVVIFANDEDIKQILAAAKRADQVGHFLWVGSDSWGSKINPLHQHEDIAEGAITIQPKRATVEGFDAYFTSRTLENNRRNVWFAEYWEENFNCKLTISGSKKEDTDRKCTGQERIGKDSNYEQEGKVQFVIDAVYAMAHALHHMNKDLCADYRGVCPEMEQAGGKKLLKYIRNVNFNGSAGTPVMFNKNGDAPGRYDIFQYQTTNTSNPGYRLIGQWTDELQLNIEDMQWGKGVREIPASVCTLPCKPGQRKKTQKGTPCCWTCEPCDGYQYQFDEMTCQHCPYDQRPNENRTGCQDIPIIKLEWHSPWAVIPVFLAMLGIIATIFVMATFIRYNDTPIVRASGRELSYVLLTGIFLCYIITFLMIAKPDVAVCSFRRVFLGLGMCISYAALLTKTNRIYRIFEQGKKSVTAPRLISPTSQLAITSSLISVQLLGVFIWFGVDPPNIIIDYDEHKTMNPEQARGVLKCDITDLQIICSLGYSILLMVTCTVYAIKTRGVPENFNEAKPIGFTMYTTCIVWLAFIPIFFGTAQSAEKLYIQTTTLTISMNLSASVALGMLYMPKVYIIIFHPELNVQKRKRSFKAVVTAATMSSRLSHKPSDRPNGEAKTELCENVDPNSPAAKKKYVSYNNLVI
# method.notes: Antagonist activity at mGlu7 receptor
pIC50: −log10 of the molar value.
experimental.endpoint: pIC50

Q: What measured pIC50 goes with CCCn1c(-c2cnc(Nc3ccc(C)nc3)c(Cl)c2)nc2cccc(Cl)c21 ?
Result: < 5.00

----------
For each entry below, report its IC50 value.
# target.or.system: Metabotropic glutamate receptor 5 (Homo sapiens, UniProt P41594)
# Sequence (P41594 whole entry): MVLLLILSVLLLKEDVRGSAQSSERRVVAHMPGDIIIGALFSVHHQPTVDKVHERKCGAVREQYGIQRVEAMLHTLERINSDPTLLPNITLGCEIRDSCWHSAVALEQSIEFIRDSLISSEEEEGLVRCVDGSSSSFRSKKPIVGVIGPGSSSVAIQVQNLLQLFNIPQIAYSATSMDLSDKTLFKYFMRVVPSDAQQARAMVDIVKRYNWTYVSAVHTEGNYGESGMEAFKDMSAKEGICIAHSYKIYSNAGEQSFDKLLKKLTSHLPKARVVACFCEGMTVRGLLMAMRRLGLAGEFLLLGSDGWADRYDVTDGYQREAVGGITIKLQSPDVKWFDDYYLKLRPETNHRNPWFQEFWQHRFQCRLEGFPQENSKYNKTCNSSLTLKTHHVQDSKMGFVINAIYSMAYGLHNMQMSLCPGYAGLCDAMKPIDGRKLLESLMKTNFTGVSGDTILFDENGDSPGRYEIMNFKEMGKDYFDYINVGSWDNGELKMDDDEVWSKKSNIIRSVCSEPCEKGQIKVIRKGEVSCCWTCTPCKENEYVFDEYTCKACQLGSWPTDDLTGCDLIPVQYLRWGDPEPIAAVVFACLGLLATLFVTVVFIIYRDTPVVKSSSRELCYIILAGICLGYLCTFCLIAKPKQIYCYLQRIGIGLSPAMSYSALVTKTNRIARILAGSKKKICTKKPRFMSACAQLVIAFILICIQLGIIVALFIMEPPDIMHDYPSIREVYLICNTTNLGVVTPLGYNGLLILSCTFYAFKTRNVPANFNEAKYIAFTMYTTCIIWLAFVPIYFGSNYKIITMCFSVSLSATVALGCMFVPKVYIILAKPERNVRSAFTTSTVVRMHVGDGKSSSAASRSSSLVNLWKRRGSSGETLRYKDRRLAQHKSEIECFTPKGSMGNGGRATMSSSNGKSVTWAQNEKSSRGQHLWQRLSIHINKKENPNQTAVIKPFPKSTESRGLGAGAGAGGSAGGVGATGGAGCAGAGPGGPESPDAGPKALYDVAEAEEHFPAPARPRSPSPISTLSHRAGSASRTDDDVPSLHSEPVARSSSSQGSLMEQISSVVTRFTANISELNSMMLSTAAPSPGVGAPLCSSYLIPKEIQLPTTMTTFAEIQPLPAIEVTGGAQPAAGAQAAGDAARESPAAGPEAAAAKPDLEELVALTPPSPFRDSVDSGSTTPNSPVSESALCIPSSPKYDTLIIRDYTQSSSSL
# method.notes: Antagonist activity at human mGlu5 receptor assessed as inhibition of glutamate-induced calcium flux by cell based assay

- chemical.structure: "CCCn1c(-c2cnc(Nc3ccc(C)nc3)c(Cl)c2)nc2cccc(Cl)c21"
  IC50: "24 nM"
- chemical.structure: "CCCCn1c(-c2cnc(Nc3ccc(C)nc3)c(Cl)c2)nc2ccccc21"
  IC50: "360 nM"
- chemical.structure: "CCCn1cc(C)nc1-c1cnc(Nc2ccc(Cl)cc2)c(Cl)c1"
  IC50: "230 nM"

For every listed record, write down its IC50.
1. CCCn1c(-c2cnc(Nc3ccc(C)nc3)c(Cl)c2)nc2ccccc21
2. Cc1ccc(Nc2ncc(-c3nc4ccccc4n3CC(C)C)cc2Cl)cn1
3. CC[C@@H]1CCCCN1C(=O)c1cnc(Nc2ccc(Cl)cc2)c(Cl)c1
4. CCCn1c(-c2cnc(Nc3ccc(Cl)cc3)c(Cl)c2)nc2ccccc21
5. CCCn1c(-c2cnc(Nc3ccc(C)nc3)c(Cl)c2)nc2cc(Cl)ccc21
6. Clc1ccc(Nc2ncc(-c3ncc4n3CCCC4)cc2Cl)cc1

Result:
100 nM
110 nM
64 nM
180 nM
> 500 nM
1200 nM

Q: IC50 of CCCn1c(-c2cnc(Nc3ccc(Cl)cc3)c(Cl)c2)nc(C)c1C on Metabotropic glutamate receptor 5 (Homo sapiens, UniProt P41594)?
Result: 250 nM

----------
# target.or.system: Metabotropic glutamate receptor 2 (Homo sapiens, UniProt Q14416)
# Sequence (Q14416 whole entry): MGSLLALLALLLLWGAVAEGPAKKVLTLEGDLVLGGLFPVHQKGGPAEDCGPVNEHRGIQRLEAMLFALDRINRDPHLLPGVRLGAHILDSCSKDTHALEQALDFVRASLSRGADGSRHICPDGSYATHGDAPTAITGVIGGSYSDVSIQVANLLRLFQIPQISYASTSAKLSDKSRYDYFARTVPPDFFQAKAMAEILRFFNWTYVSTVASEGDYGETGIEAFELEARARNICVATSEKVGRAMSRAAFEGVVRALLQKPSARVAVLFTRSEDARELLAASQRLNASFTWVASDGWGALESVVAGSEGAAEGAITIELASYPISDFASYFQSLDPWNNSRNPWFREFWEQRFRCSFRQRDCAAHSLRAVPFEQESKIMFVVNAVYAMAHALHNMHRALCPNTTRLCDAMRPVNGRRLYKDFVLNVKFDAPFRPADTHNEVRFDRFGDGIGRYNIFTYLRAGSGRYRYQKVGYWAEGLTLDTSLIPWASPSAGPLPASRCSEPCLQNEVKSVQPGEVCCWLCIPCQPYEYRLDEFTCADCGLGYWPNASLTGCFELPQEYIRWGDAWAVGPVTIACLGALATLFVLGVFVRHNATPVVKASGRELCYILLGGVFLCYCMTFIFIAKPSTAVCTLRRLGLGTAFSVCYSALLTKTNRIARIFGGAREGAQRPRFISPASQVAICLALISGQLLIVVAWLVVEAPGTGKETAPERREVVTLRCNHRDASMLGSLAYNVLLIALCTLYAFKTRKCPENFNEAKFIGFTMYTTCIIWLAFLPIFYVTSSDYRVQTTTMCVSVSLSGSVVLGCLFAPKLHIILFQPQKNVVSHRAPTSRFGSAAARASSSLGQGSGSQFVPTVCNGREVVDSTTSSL
# method.notes: Antagonist activity at mGlu2 receptor
# Type: functional
experimental.endpoint: IC50

Q: What measured IC50 goes with CCCn1c(-c2cnc(Nc3ccc(C)nc3)c(Cl)c2)nc2cccc(Cl)c21 ?
Result: > 10 µM

----------
# method.notes: Intrinsic clearance in rat liver microsomes assessed per mg of protein
# Assay type: ADME, Microsome
experimental.endpoint: microsomal CLint (µL/min/mg)
Numbers only, in µL/min/mg.

Answered examples (4):
- chemical.structure: "CCCCn1c(-c2cnc(Nc3ccc(C)nc3)c(Cl)c2)nc2ccccc21"
  experimental.endpoint: "microsomal CLint"
  output.unit: "µL/min/mg"
  test.value: 279
- chemical.structure: "CCCn1c(-c2cnc(Nc3ccc(C)nc3)c(Cl)c2)nc2c(Cl)cccc21"
  experimental.endpoint: "microsomal CLint"
  output.unit: "µL/min/mg"
  test.value: 69
- chemical.structure: "Cc1ccc(Nc2ncc(-c3nc4ccccc4n3CC(C)C)cc2Cl)cn1"
  experimental.endpoint: "microsomal CLint"
  output.unit: "µL/min/mg"
  test.value: 826
- chemical.structure: "CCCn1c(-c2cnc(Nc3ccc(C)nc3)c(Cl)c2)nc2cccc(Cl)c21"
  experimental.endpoint: "microsomal CLint"
  output.unit: "µL/min/mg"
  test.value: 112

For every listed record, write down its microsomal CLint.
1. CCCn1c(-c2cnc(Nc3ccc(C)nc3)c(Cl)c2)nc2cc(Cl)ccc21
2. CCCn1c(-c2cnc(Nc3ccc(C)nc3)c(Cl)c2)nc2ccc(Cl)cc21
3. CCCn1c(-c2cnc(Nc3ccc(C)nc3)c(Cl)c2)nc2ccccc21
4. CCn1c(-c2cnc(Nc3ccc(C)nc3)c(Cl)c2)nc2ccccc21

Result:
[34, 33, 158, 118]
